assay: In vivo kinetics experiment (radioactivity distribution); design: species or system Wistar male rat; conditions: 10 min after administration; rat i.v.; mean ± SD
Recorded measurements of Radioactivity distribution Testis, one per entry

{"Compound": "CC(C)n1c(-c2cncc(Cn3ccnc3)c2)nc2ccc([123I])cc21 [[^123I] 606]", "Radioactivity distribution Testis (% ID/g)": 0.08}
{"Compound": "COc1cc([123I])cc2c1nc(-c1cncc(Cn3ccnc3)c1)n2C1CC1 [[^123I] 609]", "Radioactivity distribution Testis (% ID/g)": 0.05}
{"Compound": "CCn1c(-c2cncc(Cn3ccnc3)c2)nc2ccc([123I])cc21 [[^123I] 608]", "Radioactivity distribution Testis (% ID/g)": 0.07}
{"Compound": "Cn1c(-c2cncc(Cn3ccnc3)c2)nc2ccc([123I])cc21 [[^123I] 607]", "Radioactivity distribution Testis (% ID/g)": 0.06}
{"Compound": "Fc1cc2nc(-c3cncc(Cn4ccnc4)c3)n(Cc3ccc([123I])cc3)c2cc1Cl [[^123I] 605]", "Radioactivity distribution Testis (% ID/g)": 0.03}
{"Compound": "COC(=O)c1cncn1[C@H](C)c1ccc(I)cc1 [[^123I] IMTO, (R)-[^123I]iodometomidate, reference compound]", "Radioactivity distribution Testis (% ID/g)": 0.52}
{"Compound": "FCCn1c(-c2cncc(Cn3cncc3[123I])c2)nc2cc(F)c(Cl)cc21 [[^123I] 610]", "Radioactivity distribution Testis (% ID/g)": 0.13}
{"Compound": "FCCn1c(-c2cncc(Cn3ccnc3)c2)nc2ccc([123I])cc21 [[^123I] 604]", "Radioactivity distribution Testis (% ID/g)": 0.04}
